All values here come from patent US20240190821A1.

// DC50 lookup, one value per entry
- tested.on: RBM39 (Homo sapiens, UniProt Q14498+Q66K64)
- Construct: endogenous in cells; host or cells: HCT116
- protocol.details: Western blot assay for degradation of RBM39 in HCT116 cells
- Format: cell-based
- run.conditions: HCT116, 4 h

# compound, result
data = [
    ("COC(=O)CNS(=O)(=O)c1ccc(S(=O)(=O)Nc2ccc(Cl)c3c(Cl)c[nH]c23)cc1 [Compound 1]", "< 1000 nM"),
    ("NCCCCCCCNS(=O)(=O)c1ccc(S(=O)(=O)Nc2ccc(Cl)c3c(Cl)c[nH]c23)cc1 [Compound 8]", "< 1000 nM"),
    ("Cc1ccc(NS(=O)(=O)c2cccc(-n3ccnn3)c2)c2[nH]cc(C#N)c12 [Compound 96]", "< 100 nM"),
]

The recorded DC50 for entry Cc1ccc(NS(=O)(=O)c2ccc(-n3ccnn3)cc2)c2[nH]cc(C#N)c12 [Compound 95] equals < 100 nM

###

- tested.on: DCAF15-RBM39 ternary complex (Homo sapiens, UniProt Q14498+Q66K64)
- Construct: (RRM2)
- protocol.details: Compound-induced DCAF15-RBM39 ternary complex formation, AlphaLISA
- Type: biochemical
- run.conditions: AlphaLISA, His-tagged DCAF15 complex and biotin-carrying RBM39; read-out: Ternary-RBM39 (RRM2) EC50
property.name: EC50

Record excerpt, results attached:
# compound, tested.on, result
measured = [
    ("C#CCOCCOCCOCC(=O)N(CCC)c1ccc(S(=O)(=O)Nc2ccc(Cl)c3c(Cl)c[nH]c23)cc1", "DCAF15-RBM39 ternary complex (Homo sapiens, UniProt Q14498+Q66K64)", "< 5 µM"),
    ("CN1CCC(S(=O)(=O)Nc2ccc(S(=O)(=O)Nc3ccc(Cl)c4c(Cl)c[nH]c34)cc2)CC1", "DCAF15-RBM39 ternary complex (Homo sapiens, UniProt Q14498+Q66K64)", "< 5 µM"),
    ("Cc1ccc(NS(=O)(=O)c2cc(F)cc(C#N)c2)c2[nH]cc(C(F)F)c12", "DCAF15-RBM39 ternary complex (Homo sapiens, UniProt Q14498+Q66K64)", "< 5 µM"),
    ("O=C1CCC(NS(=O)(=O)c2ccc(S(=O)(=O)Nc3ccc(Cl)c4c(Cl)c[nH]c34)c(F)c2)CN1 (stereo not drawn)", "DCAF15-RBM39 ternary complex (Homo sapiens, UniProt Q14498+Q66K64)", "< 20 µM"),
    ("O=S(=O)(Nc1ccc(Cl)c2c(Cl)c[nH]c12)c1ccc(S(=O)(=O)NC2CCOCC2)cc1", "DCAF15-RBM39 ternary complex (Homo sapiens, UniProt Q14498+Q66K64)", "< 1 µM"),
]

The recorded EC50 for entry `O=S(=O)(Nc1ccc(Cl)c2c(Cl)c[nH]c12)c1ccc(NS(=O)(=O)C2CCNCC2)cc1` equals < 5 µM

The recorded EC50 for entry `Cc1ccc(CCNS(=O)(=O)c2ccc(S(=O)(=O)Nc3ccc(Cl)c4c(Cl)c[nH]c34)cc2)o1` equals < 20 µM

The recorded EC50 for entry NS(=O)(=O)c1ccc(S(=O)(=O)Nc2cccc3c(Cl)c[nH]c23)cc1 [Indisulam, indisulam, reference compound] equals < 1 µM

The recorded EC50 for entry `Cc1ccc(NS(=O)(=O)c2ccc(S(=O)(=O)N3CCNCC3)cc2)c2[nH]cc(C#N)c12` equals < 1 µM

###

- tested.on: DCAF15-RBM39 ternary complex (Homo sapiens, UniProt Q14498+Q66K64)
- Construct: (RRM2)
- protocol.details: Compound-induced DCAF15-RBM39 ternary complex formation, AlphaLISA
- Assay type: biochemical
- run.conditions: AlphaLISA, His-tagged DCAF15 complex and biotin-carrying RBM39; read-out: Ternary-RBM39 (RRM2) EC50
property.name: EC50

Record excerpt, results attached:
# molecule, property.name, result
rows = [
    ("O=S(=O)(Nc1cccc2cc[nH]c12)c1ccc(S(=O)(=O)N2CCNCC2)cc1 [compound 145]", "EC50", "< 5000 nM"),
    ("O=S(=O)(Nc1ccc(Cl)c2c(Cl)c[nH]c12)c1ccc(S(=O)(=O)N2CCCNCC2)cc1 [Compound 52]", "EC50", "< 1000 nM"),
    ("Cc1ccc(NS(=O)(=O)c2ccc(S(=O)(=O)N3CC4(CNC4)C3)cc2)c2[nH]cc(C#N)c12 [Compound 93]", "EC50", "< 1000 nM"),
]

With those in mind, consider the next molecule.
The recorded EC50 for entry CN(C)C(=O)c1ccc(CCNS(=O)(=O)c2ccc(S(=O)(=O)Nc3ccc(Cl)c4c(Cl)c[nH]c34)cc2)cc1 [Compound 23] equals < 5000 nM

###

- tested.on: DCAF15-RBM39 ternary complex (Homo sapiens, UniProt Q14498+Q66K64)
- Construct: (RRM2)
- protocol.details: Compound-induced DCAF15-RBM39 ternary complex formation, AlphaLISA
- Type: biochemical
- run.conditions: AlphaLISA, His-tagged DCAF15 complex and biotin-carrying RBM39; read-out: Ternary-RBM39 (RRM2) EC50
// EC50 lookup, one value per entry

# compound, EC50
data = [
    ("O=S1(=O)CCC(OCCNS(=O)(=O)c2ccc(S(=O)(=O)Nc3ccc(Cl)c4c(Cl)c[nH]c34)cc2)CC1 [Compound 4]", "< 1000 nM"),
]

The recorded EC50 for entry CN1CC(CCNS(=O)(=O)c2ccc(S(=O)(=O)Nc3ccc(Cl)c4c(Cl)c[nH]c34)cc2)C1 [Compound 22] equals < 1000 nM

The recorded EC50 for entry Cc1ccnc(CNS(=O)(=O)c2ccc(S(=O)(=O)Nc3ccc(Cl)c4c(Cl)c[nH]c34)cc2)c1 [Compound 16] equals < 20000 nM

The recorded EC50 for entry CN1CCN(S(=O)(=O)c2ccc(S(=O)(=O)Nc3ccc(Cl)c4c(Cl)c[nH]c34)cc2)CC1 [Compound 48] equals < 1000 nM

The recorded EC50 for entry Cc1ccc(NS(=O)(=O)c2ccc(-n3ccnn3)cc2)c2[nH]cc(C#N)c12 [Compound 95] equals < 1000 nM

###

- tested.on: DCAF15-RBM39 ternary complex (Homo sapiens, UniProt Q14498+Q66K64)
- Construct: (RRM2)
- protocol.details: Compound-induced DCAF15-RBM39 ternary complex formation, AlphaLISA
- Type: biochemical
- run.conditions: AlphaLISA, His-tagged DCAF15 complex and biotin-carrying RBM39; read-out: Ternary-RBM39 (RRM2) EC50
// EC50 lookup, one value per entry

Record excerpt, results attached:
# molecule, result
data = [
    ("CCC1CN(S(=O)(=O)c2ccc(S(=O)(=O)Nc3ccc(C)c4c(C#N)c[nH]c34)cc2)CCN1 (stereo not drawn) [Compound 84]", "< 1000 nM"),
    ("N#Cc1ccc(NS(=O)(=O)c2ccc(S(=O)(=O)N3CCNCC3)cc2)c2[nH]cc(Cl)c12 [Compound 88]", "< 1000 nM"),
    ("Cc1cnc(CNS(=O)(=O)c2ccc(S(=O)(=O)Nc3ccc(Cl)c4c(Cl)c[nH]c34)cc2)cn1 [Compound 19]", "< 1000 nM"),
    ("CCCC1CNCCN1S(=O)(=O)c1ccc(S(=O)(=O)Nc2ccc(Cl)c3c(Cl)c[nH]c23)cc1 (stereo not drawn) [Compound 47]", "< 1000 nM"),
    ("CCN=S(=O)(c1ccc(S(=O)(=O)Nc2ccc(Cl)c3c(Cl)c[nH]c23)cc1)C1CCNCC1 (stereo not drawn) [Compound 68]", "< 1000 nM"),
]

The recorded EC50 for entry O=C1CCC(NS(=O)(=O)c2ccc(S(=O)(=O)Nc3ccc(Cl)c4c(Cl)c[nH]c34)cc2)CN1 (stereo not drawn) [Compound 31] equals < 1000 nM

The recorded EC50 for entry O=S(=O)(NCC1CCN(CCCc2ccccc2)CC1)c1ccc(S(=O)(=O)Nc2ccc(Cl)c3c(Cl)c[nH]c23)cc1 [Compound 10] equals < 1000 nM

The recorded EC50 for entry CCN(CC)C(=O)c1ccc(CNS(=O)(=O)c2ccc(S(=O)(=O)Nc3ccc(Cl)c4c(Cl)c[nH]c34)cc2)cc1 [Compound 12] equals < 20000 nM

The recorded EC50 for entry N#Cc1cccc(S(=O)(=O)Nc2ccc(Cl)c3c(Cl)c[nH]c23)c1 [Compound 74] equals < 1000 nM

The recorded EC50 for entry CCCN(c1ccc(S(=O)(=O)Nc2ccc(Cl)c3c(Cl)c[nH]c23)cc1)S(=O)(=O)C1CCNCC1 [Compound 63] equals < 1000 nM

The recorded EC50 for entry CN(C)C(=O)CC(NS(=O)(=O)c1ccc(S(=O)(=O)Nc2ccc(Cl)c3c(Cl)c[nH]c23)cc1)c1ccccc1 (stereo not drawn) [Compound 11] equals < 20000 nM

###

- tested.on: DCAF15-RBM39 ternary complex (Homo sapiens, UniProt Q14498+Q66K64)
- Construct: (RRM2)
- protocol.details: Compound-induced DCAF15-RBM39 ternary complex formation, AlphaLISA
- Format: biochemical
- run.conditions: AlphaLISA, His-tagged DCAF15 complex and biotin-carrying RBM39; read-out: Ternary-RBM39 (RRM2) EC50
- Description: Compound-induced DCAF15-RBM39 ternary complex formation was monitored using AlphaLISA® assays (Perkin Elmer, Waltham, MA). […] 9.8 ul of this protein mixture was then mixed with the compounds in the assay plate and incubated for one hour at room temperature. Reaction mixtures with no compounds added were included as negative controls, while a His-tagged and biotinylated GST protein was included to track general assay performance. […]
property.name: EC50

The recorded EC50 for entry Cc1ccc(NS(=O)(=O)c2ccc(S(=O)(=O)N3CCN4CCCC4C3)cc2)c2[nH]cc(C#N)c12 (stereo not shown) equals < 1000 nM

The recorded EC50 for entry `Cc1ccc(NS(=O)(=O)c2ccc(S(=O)(=O)N3CCNC(=O)C3)cc2)c2[nH]cc(C#N)c12` equals < 1000 nM

The recorded EC50 for entry `N#Cc1cccc(S(=O)(=O)Nc2ccc(I)c3c(Cl)c[nH]c23)c1` equals < 5000 nM
